assay: BSK_SAg_SRB: Viability Assessment in the BioMAP Diversity Plus: SAg Assay (AID 2283096); conditions: primary human HUVEC with PBMC;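 note: cells read one day after compound addition; hits may be either gain or loss of signal compared with DMSO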
The source made the active and inactive calls. Rule for the calls: active = hit-call score of the fitted dose curve at least 0.9, where 1 is the maximum; inactive = score below 0.9.
Mark one answer only. Choices: TRUE (active), FALSE (inactive)

// known answers, use as guide
* CCCCCCCCCC(=O)O | FALSE
* Cc1ccc(C(C)C)cc1 | FALSE
* O=c1c(-c2ccc(O)cc2)coc2cc(O)cc(O)c12 | TRUE
* C[C@]12CC[C@@H]3c4ccc(O)cc4CC[C@H]3[C@@H]1CC[C@H]2O | TRUE

Field: outcome | Entry: NC(=O)c1nc(-c2cccc(-c3cc(F)ccc3OCC(F)(F)C(F)(F)F)c2)n[nH]1
TRUE

Field: outcome | Entry: Oc1ccc2ccccc2c1
FALSE

---

read-out: ABC Transporter (ABCC2), ABCC2 (gene 1244); test: LTEA_HepaRG_ABCC2: Life Technologies and Expression Analysis (LTEA) Assay for ABC Transporter (ABCC2) using HepaRG (AID 2283464); settings: mRNA level, 48 h; actives raise or lower the signal
Calls of active or inactive are those of the source. Rule for the calls: active = hit-call score of the fitted dose curve at least 0.9, where 1 is the maximum; inactive = score below 0.9.
Mark one answer only. Choices: active, inactive

// known answers, use as guide
- Cc1cccc2ccccc12: inactive
- CCOC(=O)O[C@H](C)OC(=O)c1ccc2c(c1)cc(C(=O)NC1CCN(C(C)C)CC1)n2Cc1cc(-c2ccc(Cl)s2)on1: inactive
- NCc1cccc(C2CCN(C(=O)c3ccc(C#Cc4ccccc4F)o3)CC2)c1: active

Consider now this further molecule.
Field: outcome | Entry: CCO[Si](CCCNC(N)=O)(OCC)OCC
inactive

---

test: APR_HepG2_p53Act_24hr: Apredica 24-hour HepG2 Assay for p53 Activation (AID 2282913); conditions: high-content imaging, actives raise or lower the signal;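 note: p53 protein immunofluorescence averaged per cell in HepG2 with Hoechst nuclei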
Activity calls are given as the source filed them. How the source made its calls: active means hit-call score of the fitted dose curve at least 0.9, where 1 is the maximum; inactive means score below 0.9.
Mark one answer only. Choices: label 1 = active, label 0 = inactive

// known answers, use as guide
- O=C1O[C@H]([C@@H](O)CO)C(O)=C1O: label 0
- Cc1ncc(CO)c(CO)c1O: label 0
- CN1C(=O)CC[C@H]1c1cccnc1: label 0
- CC(C)(C)c1cc(/C=C2\SC(N)=NC2=O)cc(C(C)(C)C)c1O: label 1
- CO[C@H]1/C=C/O[C@@]2(C)Oc3c(C)c(O)c4c(O)c(c(/C=N/N5CCN(C)CC5)c(O)c4c3C2=O)NC(=O)/C(C)=C\C=C\[C@H](C)[C@H](O)[C@@H](C)[C@@H](O)[C@@H](C)[C@H](OC(C)=O)[C@@H]1C: label 0
- O=c1[nH]sc2ccccc12: label 1
- O=C(O)Cn1c(=O)n(Cc2ccc(Br)cc2F)c(=O)c2ccc(Cl)cc21: label 0
- CC1(C)NC(=O)N(c2ccc([N+](=O)[O-])c(C(F)(F)F)c2)C1=O: label 0

Field: outcome | Entry: CCCCOC(=O)c1ccc(O)cc1
label 0

Field: outcome | Entry: CCCCCCCCOC(=O)c1cc(O)c(O)c(O)c1
label 1

Field: outcome | Entry: COCC(C)OCC(C)OCC(C)O (stereo not drawn)
label 0

Field: outcome | Entry: CCN(Cc1cccc(S(=O)(=O)O)c1)c1ccc(C(=C2C=CC(=[N+](CC)Cc3cccc(S(=O)(=O)O)c3)C=C2)c2ccccc2S(=O)(=O)[O-])cc1
label 0

Field: outcome | Entry: O=c1c(-c2ccc(O)cc2)coc2cc(O)cc(O)c12
label 1

---

assay: CCTE_Padilla_ZF_144hpf_TERATOSCORE: (Legacy) CCTE's 144 Hour Post-fertilization zebrafish Assay Teratoscore, Padilla Lab (AID 2283679);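 note: zebrafish embryos with chorions exposed by immersion from 6-8 hpf to 5 dpf with daily renewal; teratogenicity score from eye scoring of death hatching and malformations at 144 hpf; higher score means more developmental defects relative to DMSO baseline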
The source made the active and inactive calls. The calls were made as follows: active = hit-call score of the fitted dose curve at least 0.9, where 1 is the maximum; inactive = score below 0.9.
quantity measured: AC50

Below, 2 compounds whose answers are already recorded.
- CN1C(=O)N(c2ccccc2Br)Cc2cnc(Nc3ccc4c(c3)OCC(CO)O4)nc21 (stereo not drawn): 4.31 µM (active)
- O=C(O)Cc1cc(I)c(Oc2ccc(O)c(I)c2)c(I)c1: 0.101 µM (active)

Next:
Data request, read-out AC50, for CC/C(=C(/CC)c1ccc(O)cc1)c1ccc(O)cc1
5.03 µM (active)

---

read-out: Apoptosis regulator Bcl-2 (Homo sapiens); assay: LTEA_HepaRG_BCL2: Life Technologies and Expression Analysis (LTEA) Assay for Bcl-2 gene using HepaRG (AID 2283475); settings: mRNA level, 48 h; actives raise or lower the signal;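 note: BCL2 transcript by TaqMan qRT-PCR normalised to ACTB GAPDH and POLR2A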
Activity calls are given as the source filed them. The calls were made as follows: active = hit-call score of the fitted dose curve at least 0.9, where 1 is the maximum; inactive = score below 0.9.
Mark one answer only. Choices: active, inactive

- CCCCCCCCCCCC[N+](C)(C)C: active
- CCCOC(=O)c1cc(O)c(O)c(O)c1: inactive
- CCCCCCCC[Si](OCC)(OCC)OCC: inactive
- CC(C)(C)c1csc(-c2cc3cc(OCc4ccccc4CC(=O)O)ccc3o2)n1: inactive
- CCN(Cc1cccnc1)C(=O)c1cccc(Cl)c1[C@]1(C)C(=O)N(Cc2ccc(OC)cc2OC)c2ccc(Cl)cc21: active
- CCCC(=O)OCCC(C)C: inactive
- Cc1cn([C@H]2C[C@H](N=[N+]=[N-])[C@@H](CO)O2)c(=O)[nH]c1=O: inactive
- CC[C@H](NC(=O)c1cc(F)ccc1NS(=O)(=O)c1cccc2cccnc12)c1ccccc1: inactive
- CC[C@@H]1C[C@H](N(Cc2cc(C(F)(F)F)cc(C(F)(F)F)c2)C(C)=O)c2cc(C(F)(F)F)ccc2N1C(=O)OC(C)C: inactive
- CC(C)(C)c1cc(/C=C2\SC(N)=NC2=O)cc(C(C)(C)C)c1O: active

Field: outcome | Entry: Oc1ccc2ccccc2c1
inactive

Field: outcome | Entry: CCCCCCCCCCCCO
inactive

Field: outcome | Entry: CO[C@H]1/C=C/O[C@@]2(C)Oc3c(C)c(O)c4c(O)c(c(/C=N/N5CCN(C)CC5)c(O)c4c3C2=O)NC(=O)/C(C)=C\C=C\[C@H](C)[C@H](O)[C@@H](C)[C@@H](O)[C@@H](C)[C@H](OC(C)=O)[C@@H]1C
inactive

Field: outcome | Entry: Cc1ccc2oc(CN(Cc3ccccc3)C(=O)Nc3c(F)cc(F)cc3F)c(-c3ccc(Cl)cc3)c2c1
active

Field: outcome | Entry: CCCCCc1ccc(N)cc1
inactive

Field: outcome | Entry: O=C(O)c1ccccc1C(=O)OCc1ccccc1
inactive

Field: outcome | Entry: C[C@]12CC[C@@H]3c4ccc(O)cc4CC[C@H]3[C@@H]1CCC2=O
inactive

Field: outcome | Entry: COc1cccc([C@H](O)C2CCN(CCc3ccc(F)cc3)CC2)c1OC
inactive

Field: outcome | Entry: Cc1ccc(C(C)C)cc1
inactive

---

read-out: JUN Transcription Factor, JUN (gene 3725); test: LTEA_HepaRG_JUN: Life Technologies and Expression Analysis (LTEA) Assay for JUN Transcription Factor using HepaRG (AID 2283513); conditions: mRNA level, 48 h; actives raise or lower the signal
Calls of active or inactive are those of the source. Rule for the calls: active = hit-call score of the fitted dose curve at least 0.9, where 1 is the maximum; inactive = score below 0.9.
Mark one answer only. Choices: T (active), F (inactive)

// known answers, use as guide
- CCCCCCCCOC(=O)c1cc(O)c(O)c(O)c1: F
- CCN(Cc1cccnc1)C(=O)c1cccc(Cl)c1[C@]1(C)C(=O)N(Cc2ccc(OC)cc2OC)c2ccc(Cl)cc21: F
- CC(O)CC(C)(C)O (stereo not given): F
- CCCCCCCCN(C)CCCCCCCC: F

Consider now this further molecule.
Field: outcome | Entry: CN(C)C(=O)C1(N2CCCCC2)CCN(CC[C@@]2(c3ccc(Cl)c(Cl)c3)CN(C(=O)c3ccccc3)CCO2)CC1
T

---

target: Retinoic acid receptor RXR-alpha (Homo sapiens); test: OT_NURR1_NURR1RXRa_0480: Odyssey Thera (OT) 8-hour HEK293T Protein Complementation Assay for Nurr1/retinoid X receptor (RXR) (AID 2283385)
Results filed as inconclusive are left out. Activity calls are given as the source filed them. The calls were made as follows: active = hit-call score of the fitted dose curve at least 0.9, where 1 is the maximum; inconclusive = response in the unintended direction; inactive = score below 0.9.
Mark one answer only. Choices: Y = active, N = inactive

* CC(O)CC(C)(C)O (stereo not drawn) | N
* CO[C@H]1/C=C/O[C@@]2(C)Oc3c(C)c(O)c4c(O)c(c(/C=N/N5CCN(C)CC5)c(O)c4c3C2=O)NC(=O)/C(C)=C\C=C\[C@H](C)[C@H](O)[C@@H](C)[C@@H](O)[C@@H](C)[C@H](OC(C)=O)[C@@H]1C | N

Consider now this further compound.
Field: outcome | Entry: Cc1cc2c(cc1C(F)(F)F)N(C(=O)Nc1ccc(Oc3cccnc3C)nc1)CC2
Y

---

Read-out: Lipoprotein lipase (LPL), LPL (gene 4023)
Assay: LTEA_HepaRG_LPL: Life Technologies and Expression Analysis (LTEA) Assay for Lipoprotein lipase (LPL) using HepaRG (AID 2283515)
Settings: mRNA level, 48 h; actives raise or lower the signal
Protocol: LTEA_HepaRG is a cell based, multiplexed-readout assay that uses HepaRG, a human liver cell line, with measurements taken at 48 hours after chemical dosing on a 96-well plate.LTEA_HepaRG_LPL is one of 102 assay component(s) measured in the LTEA HepaRG cell culture assay. It is a marker of Steatosis.Data from the assay component LTEA_HepaRG_LPL was analyzed into 1 endpoint. […]
The source made the active and inactive calls. The calls were made as follows: active = hit-call score of the fitted dose curve at least 0.9, where 1 is the maximum; inactive = score below 0.9.
Mark one answer only. Choices: active, inactive

// known answers, use as guide
- CN(C[C@@H](CC[N+]12CCC(C3CCCCC3)(CC1)CC2)c1ccc(Cl)c(Cl)c1)C(=O)c1cc(C(F)(F)F)cc(C(F)(F)F)c1: active
- O=C(O)Cn1c(=O)n(Cc2ccc(Br)cc2F)c(=O)c2ccc(Cl)cc21: active
- CN(C)C(=O)C1(N2CCCCC2)CCN(CC[C@@]2(c3ccc(Cl)c(Cl)c3)CN(C(=O)c3ccccc3)CCO2)CC1: active
- CCCCOC(=O)CC(CC(=O)OCCCC)(OC(C)=O)C(=O)OCCCC: inactive

Field: outcome | Entry: CCCCOC(=O)c1ccc(O)cc1
inactive

Field: outcome | Entry: O=C(O)Cc1cc(I)c(Oc2ccc(O)c(I)c2)c(I)c1
active

Field: outcome | Entry: c1ccc2ccccc2c1
inactive
